The molecules listed here are annotated with their pKi.
# tested.target: 5-hydroxytryptamine receptor 2A (Rattus norvegicus)
# Sequence (P14842 whole entry): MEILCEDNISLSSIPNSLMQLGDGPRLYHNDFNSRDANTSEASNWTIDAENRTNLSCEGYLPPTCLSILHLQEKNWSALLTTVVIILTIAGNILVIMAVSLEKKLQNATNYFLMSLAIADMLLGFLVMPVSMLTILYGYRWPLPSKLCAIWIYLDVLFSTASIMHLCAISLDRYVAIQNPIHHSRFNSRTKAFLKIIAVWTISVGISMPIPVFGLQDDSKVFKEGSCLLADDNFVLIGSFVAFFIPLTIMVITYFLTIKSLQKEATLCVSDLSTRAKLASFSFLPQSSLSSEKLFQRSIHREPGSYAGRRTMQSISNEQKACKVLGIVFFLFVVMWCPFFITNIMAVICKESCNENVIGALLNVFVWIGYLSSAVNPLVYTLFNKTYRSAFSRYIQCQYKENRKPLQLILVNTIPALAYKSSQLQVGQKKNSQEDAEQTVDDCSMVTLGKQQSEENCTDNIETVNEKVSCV
# assay.comment: Binding affinity at cloned rat 5-hydroxytryptamine 2A receptor using [3H]DOB as radioligand
Please keep in mind that pKi is minus log10 of the molar concentration; only the number is needed.

C[C@@H](N)Cc1c2ccoc2c(Br)c2ccoc12: 9.51
C[C@H](N)Cc1c2c(c(C(F)(F)F)c3c1OCC3)OCC2: 8.70

[ask] Please give the measured pKi for this molecule: C[C@H](N)Cc1c2ccoc2c(Br)c2ccoc12
[reply] 9.17

[ask] Please give the measured pKi for this molecule: COc1cc(C(F)(F)F)c(OC)cc1CC(C)N (centres undefined)
[reply] 8.66

[ask] Please give the measured pKi for this molecule: C[C@H](N)Cc1c2ccoc2cc2ccoc12
[reply] 7.42

[ask] Please give the measured pKi for this molecule: C[C@@H](N)Cc1c2c(cc3c1OCC3)OCC2
[reply] 7.26

[ask] Please give the measured pKi for this molecule: C[C@H](N)Cc1c2c(c(Br)c3c1OCC3)OCC2
[reply] 8.59

[ask] Please give the measured pKi for this molecule: C[C@@H](N)Cc1c2ccoc2c(C(F)(F)F)c2ccoc12
[reply] 9.54

[ask] Please give the measured pKi for this molecule: C[C@H](N)Cc1c2c(cc3c1OCC3)OCC2
[reply] 6.64

[ask] Please give the measured pKi for this molecule: C[C@@H](N)Cc1c2ccoc2cc2ccoc12
[reply] 8.82

[ask] Please give the measured pKi for this molecule: C[C@H](N)Cc1c2ccoc2c(C(F)(F)F)c2ccoc12
[reply] 9.49

[ask] Please give the measured pKi for this molecule: C[C@@H](N)Cc1c2c(c(C(F)(F)F)c3c1OCC3)OCC2
[reply] 9.15

[ask] Please give the measured pKi for this molecule: C[C@@H](N)Cc1c2c(c(Br)c3c1OCC3)OCC2
[reply] 8.92

[ask] Please give the measured pKi for this molecule: COc1ccc(OC)c(C[C@@H](C)N)c1
[reply] 5.63
